Molecular target: T1, his-tagged hTfR1 (Acro Biosystems p/n CD1-H5243) (human, UniProt P02786 89-760)
T1 construct: Bought reagent of the SPR assay
T1 sequence (P02786 89-760 limits assumed): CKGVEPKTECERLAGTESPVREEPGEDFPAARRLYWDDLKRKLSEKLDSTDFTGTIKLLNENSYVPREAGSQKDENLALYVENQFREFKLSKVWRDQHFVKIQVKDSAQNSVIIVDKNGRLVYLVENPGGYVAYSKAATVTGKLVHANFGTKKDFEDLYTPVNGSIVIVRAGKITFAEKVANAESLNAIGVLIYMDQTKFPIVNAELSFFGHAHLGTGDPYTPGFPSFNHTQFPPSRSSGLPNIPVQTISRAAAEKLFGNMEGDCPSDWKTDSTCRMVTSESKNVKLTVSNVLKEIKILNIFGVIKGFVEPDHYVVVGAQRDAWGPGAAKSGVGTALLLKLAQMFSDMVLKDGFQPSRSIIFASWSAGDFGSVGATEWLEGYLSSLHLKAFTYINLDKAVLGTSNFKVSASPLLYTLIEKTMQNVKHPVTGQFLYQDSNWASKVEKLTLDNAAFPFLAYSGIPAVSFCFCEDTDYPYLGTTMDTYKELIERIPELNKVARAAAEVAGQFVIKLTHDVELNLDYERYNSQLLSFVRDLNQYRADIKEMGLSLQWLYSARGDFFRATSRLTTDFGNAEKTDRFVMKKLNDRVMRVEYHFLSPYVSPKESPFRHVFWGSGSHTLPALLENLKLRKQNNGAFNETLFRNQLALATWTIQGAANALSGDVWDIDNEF
Experiment: SPR, Biacore X100, His-tagged TfR1 captured by anti-His
Reported kon by item:
Kindly answer with a numeric value in M⁻¹ s⁻¹, unit omitted.

Examples from the recorded data:
Fab0063 (Fab, V domains shown) VH: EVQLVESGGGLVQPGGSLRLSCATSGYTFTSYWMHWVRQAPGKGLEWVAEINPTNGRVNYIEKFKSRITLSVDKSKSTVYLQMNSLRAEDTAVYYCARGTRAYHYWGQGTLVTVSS VL: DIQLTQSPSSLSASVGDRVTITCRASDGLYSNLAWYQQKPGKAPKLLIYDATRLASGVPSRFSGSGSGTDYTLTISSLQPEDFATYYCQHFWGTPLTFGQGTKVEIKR ... 1.75e+06
Fab0002 (Fab, V domains shown) VH: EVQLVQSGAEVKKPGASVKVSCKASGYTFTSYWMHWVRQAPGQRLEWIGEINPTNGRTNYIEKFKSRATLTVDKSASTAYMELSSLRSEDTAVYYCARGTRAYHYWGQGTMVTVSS VL: DIQMTQSPSSLSASVGDRVTITCRASDNLYSNLAWYQQKPGKSPKLLVYDATNLADGVPSRFSGSGSGTDYTLTISSLQPEDFATYYCQHFWGTPLTFGQGTKVEIKR ... 649000
Fab0073 (Fab, V domains shown) VH: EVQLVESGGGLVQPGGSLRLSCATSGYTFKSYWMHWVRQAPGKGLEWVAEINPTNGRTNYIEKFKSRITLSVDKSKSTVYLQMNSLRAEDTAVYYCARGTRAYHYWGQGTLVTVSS VL: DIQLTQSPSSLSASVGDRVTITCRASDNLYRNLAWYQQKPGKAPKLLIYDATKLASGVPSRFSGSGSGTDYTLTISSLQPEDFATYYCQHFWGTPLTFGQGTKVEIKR ... 1.85e+06
Fab0060 (Fab, V domains shown) VH: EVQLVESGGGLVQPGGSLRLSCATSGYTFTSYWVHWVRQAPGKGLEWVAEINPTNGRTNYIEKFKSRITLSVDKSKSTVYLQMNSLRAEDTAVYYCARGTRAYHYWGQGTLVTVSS VL: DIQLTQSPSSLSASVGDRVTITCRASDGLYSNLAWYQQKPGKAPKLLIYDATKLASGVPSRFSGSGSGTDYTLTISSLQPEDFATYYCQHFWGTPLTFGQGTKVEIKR ... 1.22e+06

GET /value?item= Fab0067 (Fab, V domains shown) VH: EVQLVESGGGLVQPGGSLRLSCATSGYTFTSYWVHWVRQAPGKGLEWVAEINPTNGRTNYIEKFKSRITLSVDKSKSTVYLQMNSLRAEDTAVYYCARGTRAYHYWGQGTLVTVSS VL: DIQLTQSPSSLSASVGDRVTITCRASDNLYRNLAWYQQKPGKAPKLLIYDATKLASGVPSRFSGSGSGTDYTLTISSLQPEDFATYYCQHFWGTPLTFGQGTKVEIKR &field=kon returns 1.48e+06
